Values compiled from paper PMC5540273.

System: IRAK3
Settings: concentration: 1 μM,replicates: in singlicate; n = 1;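 further: KINOMEscan kinase panel screen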
readout-label: %Inh

QUERY: Requested field: %Inh. Item: N#Cc1cccc(C(=O)NC2CCN(c3ccnc(Nc4ccc(F)cc4)n3)C2)c1 (stereo not drawn)
RESULT: 27%

QUERY: Recorded %Inh for Cn1ccc2ncnc(Oc3ccc(NC(=O)Nc4cc(C(C)(C)C)on4)c(Cl)c3)c21 , please?
RESULT: 17%

QUERY: Find the recorded %Inh belonging to NC(=O)c1ccc(-c2cc3ncnc(SCC(=O)O)c3s2)cc1 and report it.
RESULT: 9%

QUERY: Bench note: what %Inh did CN1CCN(CCCNc2nccc(-c3c(-c4ccc(F)cc4)nn4cc(C(N)=O)ccc34)n2)CC1 show?
RESULT: 0%

QUERY: Quick check: %Inh of CCn1c(-c2nonc2N)nc2cncc(Br)c21 ?
RESULT: 0%

QUERY: Returns the measured %Inh for the input molecule. Input: C[C@@H](Oc1cc(-n2cnc3ccc(-c4ccncc4)cc32)sc1C(N)=O)c1ccccc1Cl
RESULT: 81%

---

Exercise: for every item that follows, state its recorded %Inh.
Test system: JNK3
Construct: gene MAPK10
Details: concentration: 1 μM,replicates: in singlicate; n = 1
Reply numerically in %, unit not repeated.

QUERY: // map Cc1ccc(CC(=O)N2CCc3cc(-c4cn(C)c5ncnc(N)c45)ccc32)cc1 [GSK2634758] to recorded %Inh (system: JNK3)
RESULT: 0

QUERY: Requested read-out %Inh, target or system JNK3, entry CNC(=O)c1ccccc1Nc1nc(Nc2cccc(CS(C)(=O)=O)c2)ncc1C.O=CO [GSK1520489]
RESULT: 99.9

QUERY: Request: %Inh, test system JNK3, entry O=C(Nc1n[nH]c2cc(-c3ccco3)ccc12)C1CC1 [SB-737447]
RESULT: 32

QUERY: Record c1ccc(Oc2ccc(Nc3ccnc4ccc(-c5ccccn5)cc34)cc2)cc1 [GW407034] : what is its %Inh with JNK3?
RESULT: 18

QUERY: Query for JNK3: what %Inh does the record show for Cn1ccc2ncnc(Oc3ccc(NC(=O)Nc4cc(C(C)(C)C)on4)c(Cl)c3)c21 ?
RESULT: 7

QUERY: Which %Inh is reported with JNK3 for this entry: CS(=O)c1ccc(-c2coc3ccc(-c4n[nH]c(=O)o4)cc23)cc1 (centres unmarked) ?
RESULT: 16

QUERY: Entry COC(=O)Nc1nc2cc(Oc3ccc(NC(=O)Nc4cc(C(F)(F)F)ccc4Cl)cc3)ccc2[nH]1.Cl [GW697465] , system JNK3: what %Inh was measured?
RESULT: 8

QUERY: # value lookup — system JNK3, readout %Inh, item CC(=O)Nc1nc2cnc(Nc3cc(NC(=O)c4cccc(CC(C)(C)C#N)c4)ccc3C)nc2s1
RESULT: 43

QUERY: Value wanted: %Inh (JNK3) of entry NC(=O)c1ccc(-c2cc3ncnc(SCC(=O)O)c3s2)cc1
RESULT: 0

QUERY: %Inh of CC(C(=O)NC1CCN(c2ccnc(Nc3ccc(F)cc3)n2)C1)c1ccc(Cl)cc1 (centres unmarked) [GSK1379713] on JNK3?
RESULT: 0

QUERY: Hi! What's the reported %Inh for O=C(Nc1cccc(C(F)(F)F)c1)c1cccc(Oc2ccc3nccn3n2)c1 on JNK3?
RESULT: 10

QUERY: What is its %Inh for JNK3? Entry: O=c1[nH]cc(-c2ccc(O)cc2)c2sc(-c3ccncc3)cc12 [GSK1033723]
RESULT: 0

QUERY: Give recorded %Inh with JNK3 for the following compound: NC(=O)Nc1sc(-c2ccc(F)cc2)cc1C(N)=O [GW789449]
RESULT: 20

QUERY: # query: %Inh | item CCOC(=O)N1CCC(n2cnc(-c3ccc(F)cc3)c2-c2ccnc(N)n2)CC1 [SB-219952] | system: JNK3
RESULT: 98.4

---

System: AURKA
Conditions: concentration: 1 μM,replicates: in singlicate; n = 1
Exercise: state measured %Inh for each of the compounds provided.
Dear colleague, please return just the value in %, with no unit written.

QUERY: Using the record for O=C(NCC1CC1)c1ccc(-c2cc(C(=O)NC3CC3)ccc2F)cc1 [GW810445] , report its %Inh.
RESULT: 0

QUERY: Name the recorded %Inh for CCNCC(Cc1ccccc1)NC(=O)c1cc(Br)c(-c2ccnc3[nH]ccc23)s1.Cl.Cl (stereo not drawn) [GSK1383280] .
RESULT: 96.2

QUERY: Item Nc1nccc(-c2ccc3c(N)n[nH]c3c2)n1 [GSK1034945] has what recorded %Inh?
RESULT: 0

QUERY: Fill in the blank: the reported %Inh of Cl.Nc1n[nH]c2cc(-c3ccccn3)ccc12 [GSK2189892] is ____.
RESULT: 0

QUERY: Looking for the measured %Inh of Cn1ccc2ncnc(Oc3ccc(NC(=O)Nc4cncc(C(F)(F)F)c4)c(Cl)c3)c21 , can you help?
RESULT: 0

QUERY: Any idea what %Inh was measured for COC(=O)c1cccc(NC(=O)NC2CCN(c3ccnc(Nc4cc(OC)c(OC)c(OC)c4)n3)C2)c1 (stereo not drawn) [GSK1379767] ?
RESULT: 72

QUERY: What does the data say about its %Inh? Entry: CCn1c(-c2nonc2N)nc2cncc(CNC3CCNCC3)c21.Cl [SB-747651]
RESULT: 6

QUERY: # query: %Inh of entry C[C@@H](Oc1cc(-n2cnc3ccc(-c4ccncc4)cc32)sc1C(N)=O)c1ccccc1Cl [GSK483724]
RESULT: 0

QUERY: Value lookup for %Inh; key = Cc1ccc(Nc2ccnc(Nc3ccc4c(c3)CS(=O)(=O)C4)n2)cc1O.Cl [GW579362]
RESULT: 100

QUERY: Return reported %Inh; argument: c1ccc(Oc2ccc(Nc3ccnc4ccc(-c5ccccn5)cc34)cc2)cc1 [GW407034]
RESULT: 6

QUERY: Would you kindly share the measured %Inh for C[C@@H]1CNc2c(sc3ccc4nc(-c5ccncc5)ccc4c23)C(=O)N1 ?
RESULT: 0

QUERY: Which %Inh reading was recorded for the compound CCN1CCN(CCCC(=O)Nc2n[nH]c3nc(-c4ccc(O)cc4)c(Br)cc23)CC1 [SB-731579] ?
RESULT: 0

---

Assignment: determine reported %Inh for the given compounds.
Tested on: IGF1R
Conditions: concentration: 1 μM,replicates: in singlicate; n = 1
State just the number; it will be interpreted in %.

QUERY: Param item = COc1cc(Nc2nccc(N3CCC(NC(=O)c4cccc(C#N)c4)C3)n2)cc(OC)c1OC (stereo not drawn) ; retrieve measured %Inh.
RESULT: 0

QUERY: Recorded %Inh of Cl.Cl.NC[C@H](CC1CCCCC1)NC(=O)c1ccc(-c2ccnc3[nH]ccc23)s1 , please.
RESULT: 0

QUERY: Recorded %Inh of COc1cccc(CNC(=O)NC2CCN(c3ccnc(Nc4cc(OC)c(OC)c(OC)c4)n3)C2)c1 (stereo not drawn) , please.
RESULT: 0

QUERY: Endpoint output: %Inh of c1ccc(Oc2ccc(Nc3ccnc4ccc(-c5ccccn5)cc34)cc2)cc1 . Value?
RESULT: 5

QUERY: I am curious: what %Inh value has been reported for CN(c1cccc(CNc2nc(Nc3ccc4c(c3)CC(=O)N4)ncc2C(F)(F)F)c1)S(C)(=O)=O ?
RESULT: 34

QUERY: Quick check: %Inh of C[C@@H](Oc1cc(-n2cnc3cc(-c4cnn(C)c4)ccc32)sc1C(N)=O)c1ccccc1Cl ?
RESULT: 0

QUERY: Requested read-out: %Inh. Entry: CNC(=O)c1ccccc1Nc1nc(Nc2cccc(CS(C)(=O)=O)c2)ncc1C.O=CO
RESULT: 90.7

QUERY: Looking for the measured %Inh of CC(=O)Nc1ccc(-c2cc3ncnc(SCC(=O)O)c3s2)cc1 , can you help?
RESULT: 0

QUERY: // %Inh lookup, key: CCN1CCN(CCCC(=O)Nc2n[nH]c3nc(-c4ccc(O)cc4)c(Br)cc23)CC1
RESULT: 0

QUERY: Can you look up the measured %Inh of NC(=O)c1ccc(-c2cc3ncnc(SCC(=O)O)c3s2)cc1 for me?
RESULT: 0

QUERY: Any idea what %Inh was measured for CN1CCN(CCNc2nc3cc(Oc4ccc(NC(=O)Nc5cc(C(F)(F)F)ccc5F)cc4)ccc3[nH]2)CC1.Cl.Cl ?
RESULT: 0

QUERY: GET /values?readout=%Inh&item= Cc1ccc2c(-c3ccnc(Nc4ccc(C(F)(F)F)cc4)n3)cnn2n1
RESULT: 7

QUERY: Tell me the measured %Inh of O=C(NOCC1CC1)c1cc(Br)c(F)c(F)c1Nc1ccc(I)cc1Cl , please.
RESULT: 0

QUERY: Which %Inh is reported for this compound? FC(F)(F)c1cc(Br)cc(Nc2nccc(-c3cnn4ncccc34)n2)c1
RESULT: 0

QUERY: // returns reported %Inh for input CC(C)c1nc(-c2cccc(NS(=O)(=O)c3ccccc3)c2)c(-c2ccnc(Nc3ccc4c(c3)CN(C)CC4)n2)s1
RESULT: 0

QUERY: Recorded %Inh for C[C@@H]1CCN(C(=O)N2CCCC2)C[C@@H]1N(C)c1ncnc2[nH]ccc12 , please?
RESULT: 0

QUERY: Name the recorded %Inh for Cn1ccc2ncnc(Oc3ccc(NC(=O)Nc4cncc(C(F)(F)F)c4)c(Cl)c3)c21 .
RESULT: 0

QUERY: GET /values?readout=%Inh&item= Nc1nccc(-c2ccc3c(N)n[nH]c3c2)n1
RESULT: 0

QUERY: Look up %Inh: CCn1c(-c2nonc2N)nc2cncc(Br)c21
RESULT: 0

QUERY: Report %Inh for O=C(Nc1cccc(Oc2ccc3nccn3n2)c1)Nc1cccc(C(F)(F)F)c1 please.
RESULT: 3

QUERY: Form field: reported %Inh of O=C(NCC1CC1)c1ccc(-c2cc(C(=O)NC3CC3)ccc2F)cc1
RESULT: 0
